# Protocol Description: antimalarial activity against Dd2 strain (AID 2302);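 further: 0% = DMSO untreated growth and 100% = chloroquine plus artemisinin killed control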
# Study Conditions: P. falciparum Dd2 in RBCs, LDH growth readout, 72 h; at 2 µM; active compounds read high

[
  {
    "Compound": "Oc1ccc2nc(NCCCc3ccccc3)nc(NCCCc3ccccc3)c2c1",
    "Endpoint Unit": "%",
    "growth inhibition": 93
  },
  {
    "Compound": "CC1Cc2ccccc2N1S(=O)(=O)c1cc(OCC(F)(F)F)ccc1OCC(F)(F)F (stereo not given)",
    "Endpoint Unit": "%",
    "growth inhibition": 95
  },
  {
    "Compound": "COc1ccc2nccc(NC(=O)CNCc3ccc(-c4ccccc4)cc3)c2c1",
    "Endpoint Unit": "%",
    "growth inhibition": 35
  },
  {
    "Compound": "CCC(C)c1ccc(Nc2nc(C)cc(N(CC)CCCN3CCCCC3)n2)cc1 (stereo not given)",
    "Endpoint Unit": "%",
    "growth inhibition": 83
  },
  {
    "Compound": "COc1cc(Nc2ncc3c(C)nc(-c4cc5ccccc5[nH]4)n3n2)cc(OC)c1OC",
    "Endpoint Unit": "%",
    "growth inhibition": 65
  },
  {
    "Compound": "Cn1cncc1-c1ccc2ncnc(Nc3ccc(OCc4ccccc4)cc3)c2c1",
    "Endpoint Unit": "%",
    "growth inhibition": 99
  },
  {
    "Compound": "CC(=O)N(C)c1cccc(CNc2cc(C)nc(Nc3ccc(C)cc3)n2)c1",
    "Endpoint Unit": "%",
    "growth inhibition": 21
  },
  {
    "Compound": "Cc1cc(Nc2ccncc2)n2nc(C)c(-c3ccccc3Cl)c2n1",
    "Endpoint Unit": "%",
    "growth inhibition": 93
  },
  {
    "Compound": "O=S(=O)(NCCN1CCCC1)c1ccc(-c2ccc(CNCc3ccccc3)cc2)cc1F",
    "Endpoint Unit": "%",
    "growth inhibition": 39
  },
  {
    "Compound": "COc1cc(Nc2nccc(N3CCC(NC(=O)c4cc5ccccc5s4)C3)n2)cc(OC)c1OC (stereo not given)",
    "Endpoint Unit": "%",
    "growth inhibition": 50
  }
]
